The reported numbers originate from patent EP2970215B1.

testedSystem: human GlyT1c transporter (Homo sapiens)
Construct: expressed in transfected cells; host or cells: CHO cells (recombinant; line hGlyT1c_5_CHO is named for the uptake assay)
assay: Radioligand binding assay using recombinant CHO cell membranes expressing human GlyT1
measurementParameters: radioligand binding to human GlyT1c transporter-expressing membranes
endpoint: Ki

Give recorded Ki with human GlyT1c transporter (Homo sapiens) for the following molecule: Cn1cnc(S(=O)(=O)N2C[C@H](NCc3cncc(-c4ccc(F)cc4)c3)[C@@H](c3ccccc3)C2)c1 [Example 445]
≤ 1 µM

* * *

testedSystem: human GlyT1c transporter (Homo sapiens)
Construct: expressed in transfected cells; host or cells: CHO cells (recombinant; line hGlyT1c_5_CHO is named for the uptake assay)
Sequence (P48067 1-706): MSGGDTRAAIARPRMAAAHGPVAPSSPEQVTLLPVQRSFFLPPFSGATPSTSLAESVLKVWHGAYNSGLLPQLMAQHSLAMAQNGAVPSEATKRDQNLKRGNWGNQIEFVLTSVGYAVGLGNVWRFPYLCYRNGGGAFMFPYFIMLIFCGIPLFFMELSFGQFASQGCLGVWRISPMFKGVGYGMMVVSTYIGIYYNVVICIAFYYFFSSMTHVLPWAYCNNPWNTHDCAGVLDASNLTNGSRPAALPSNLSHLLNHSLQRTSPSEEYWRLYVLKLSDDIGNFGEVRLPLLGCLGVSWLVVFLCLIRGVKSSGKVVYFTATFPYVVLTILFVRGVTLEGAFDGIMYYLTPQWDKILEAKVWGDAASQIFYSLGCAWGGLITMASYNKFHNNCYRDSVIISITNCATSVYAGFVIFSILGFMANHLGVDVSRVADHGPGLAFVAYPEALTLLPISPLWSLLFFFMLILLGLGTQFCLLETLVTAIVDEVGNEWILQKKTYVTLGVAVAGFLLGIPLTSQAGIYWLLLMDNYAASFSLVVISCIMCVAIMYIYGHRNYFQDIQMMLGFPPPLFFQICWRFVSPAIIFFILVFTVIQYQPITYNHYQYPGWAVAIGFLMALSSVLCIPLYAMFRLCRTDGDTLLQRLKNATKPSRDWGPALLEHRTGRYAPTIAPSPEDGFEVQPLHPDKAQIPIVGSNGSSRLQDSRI
assay: Radioligand binding assay using recombinant CHO cell membranes expressing human GlyT1
measurementParameters: radioligand binding to human GlyT1c transporter-expressing membranes
This listing pairs compounds with measured Ki.

Worked cases, answers included:
>  <compound>
Cn1cnc(S(=O)(=O)N2C[C@@H](Nc3ccc(F)c(F)c3)[C@H](c3cccc(F)c3)C2)c1 (relative stereo) [Example 197]

>  <Ki>
≤ 1 µM

$$$$
>  <compound>
CC(C)c1cccc(N[C@@H]2CN(S(=O)(=O)c3cn(C)cn3)C[C@H]2c2ccccc2)c1 (relative stereo) [Example 220]

>  <Ki>
≤ 0.01 µM

$$$$

Give recorded Ki with human GlyT1c transporter (Homo sapiens) for the following compound: CCCc1cc(N[C@H]2CN(S(=O)(=O)c3cn(C)cn3)C[C@@H]2c2ccc(F)cc2)ncn1 [Example 616]
≤ 1 µM

Then what about the compound Cn1cnc(S(=O)(=O)N2C[C@@H](NCc3cccc(Cl)c3)[C@H](c3ccc(F)cc3)C2)c1 (relative stereo) [Example 261] ?
≤ 1 µM

* * *

testedSystem: human GlyT1c transporter (Homo sapiens)
Construct: expressed in transfected cells; host or cells: CHO cells (recombinant; line hGlyT1c_5_CHO is named for the uptake assay)
assay: Radioligand binding assay using recombinant CHO cell membranes expressing human GlyT1
measurementParameters: radioligand binding to human GlyT1c transporter-expressing membranes
The following molecules are shown together with reported Ki values.

>  <molecule>
Cn1cnc(S(=O)(=O)N2C[C@@H](Nc3ccc(F)c(OC(F)(F)F)c3)[C@H](c3ccccc3)C2)c1 (relative stereo) [Example 298]

>  <Ki>
≤ 10 nM

$$$$
>  <molecule>
CCCCOc1cc(N[C@H]2CN(S(=O)(=O)c3cn(C)cn3)C[C@@H]2c2ccc(F)cc2)ncn1 [Example 717]

>  <Ki>
≤ 100 nM

$$$$

Here is the next item to consider.
Write down the reported Ki of Cn1cnc(S(=O)(=O)N2C[C@@H](OCc3ccc(S(C)(=O)=O)cc3)[C@H](c3ccc(F)cc3)C2)c1 (relative stereo) [Example 713] , test system: human GlyT1c transporter (Homo sapiens).
> 10000 nM

* * *

testedSystem: human GlyT1c transporter (Homo sapiens, UniProt P48067)
Construct: expressed in transfected cells; host or cells: CHO cells (recombinant; line hGlyT1c_5_CHO is named for the uptake assay)
assay: Radioligand binding assay using recombinant CHO cell membranes expressing human GlyT1
measurementParameters: radioligand binding to human GlyT1c transporter-expressing membranes
pKi: −log10 of the molar value.
Entries annotated with measured pKi

Example results:
>  <compound>
Cn1cnc(S(=O)(=O)N2C[C@@H](NCc3ccc(Cl)cc3Cl)[C@H](c3ccccn3)C2)c1 (relative stereo) [Example 307]

>  <pKi>
≥ 7.00

$$$$
>  <compound>
Cn1cnc(S(=O)(=O)N2C[C@@H](NCc3ccccc3Cl)[C@H](c3ccc(F)cc3)C2)c1 (relative stereo) [Example 260]

>  <pKi>
≥ 7.00

$$$$

Shift focus to the following entry.
Entry under review: Cn1cnc(S(=O)(=O)N2C[C@@H](C(=O)NCC3CC3)[C@H](c3ccc(F)cc3)C2)c1 [Example 586] . Reported pKi?
≥ 6.00

* * *

testedSystem: human GlyT1c transporter (Homo sapiens)
Construct: expressed in transfected cells; host or cells: CHO cells (recombinant; line hGlyT1c_5_CHO is named for the uptake assay)
Sequence (P48067 1-706): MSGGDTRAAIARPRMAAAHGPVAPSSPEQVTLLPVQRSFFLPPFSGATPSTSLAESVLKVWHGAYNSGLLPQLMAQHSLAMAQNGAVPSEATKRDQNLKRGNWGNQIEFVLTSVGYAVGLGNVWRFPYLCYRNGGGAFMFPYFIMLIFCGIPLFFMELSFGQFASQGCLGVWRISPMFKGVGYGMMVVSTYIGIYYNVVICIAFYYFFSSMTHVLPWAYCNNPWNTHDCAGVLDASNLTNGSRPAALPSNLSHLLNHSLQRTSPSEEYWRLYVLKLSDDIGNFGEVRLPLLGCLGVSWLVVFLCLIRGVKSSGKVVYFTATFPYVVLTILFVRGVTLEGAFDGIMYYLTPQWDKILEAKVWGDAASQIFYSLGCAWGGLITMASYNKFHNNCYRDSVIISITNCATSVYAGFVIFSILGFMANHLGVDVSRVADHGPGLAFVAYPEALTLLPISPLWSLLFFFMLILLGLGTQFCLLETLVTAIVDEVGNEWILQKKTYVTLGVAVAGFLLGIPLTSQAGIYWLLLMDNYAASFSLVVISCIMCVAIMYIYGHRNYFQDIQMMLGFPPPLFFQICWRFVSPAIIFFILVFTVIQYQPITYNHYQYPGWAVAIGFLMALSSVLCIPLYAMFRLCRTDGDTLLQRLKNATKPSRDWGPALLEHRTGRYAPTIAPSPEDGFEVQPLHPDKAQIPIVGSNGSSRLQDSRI
assay: Radioligand binding assay using recombinant CHO cell membranes expressing human GlyT1
measurementParameters: radioligand binding to human GlyT1c transporter-expressing membranes
endpoint: Ki

Completed entries (count: 3):
>  <molecule>
Cn1cnc(S(=O)(=O)N2C[C@@H](Nc3cc(C(F)(F)F)ncn3)[C@H](C3CCCCO3)C2)c1 (relative stereo)

>  <Ki>
≤ 100 nM

$$$$
>  <molecule>
CCCS(=O)(=O)N1C[C@@H](Nc2cccc(C#N)c2)[C@H](c2ccccc2)C1 (relative stereo)

>  <Ki>
≤ 10000 nM

$$$$
>  <molecule>
Cn1cnc(S(=O)(=O)N2C[C@@H](COc3cccc(C(F)(F)F)c3Cl)[C@H](c3ccc(F)cc3)C2)c1 (relative stereo)

>  <Ki>
≤ 10000 nM

$$$$

Consider the molecule Cn1cnc(S(=O)(=O)N2C[C@H](Nc3ccc(Cl)c(OC(F)(F)F)c3)[C@@H](c3ccc(F)cc3)C2)c1 and give its measured Ki.
≤ 100 nM

Then what about the molecule Cc1ccc(CN[C@@H]2CN(S(=O)(=O)c3cn(C)cn3)C[C@H]2c2ccc(F)cc2)cc1 (relative stereo) ?
≤ 100 nM

* * *

Overview of recorded Ki for various compounds
testedSystem: human GlyT1c transporter (Homo sapiens, UniProt P48067)
Construct: expressed in transfected cells; host or cells: CHO cells (recombinant; line hGlyT1c_5_CHO is named for the uptake assay)
assay: Radioligand binding assay using recombinant CHO cell membranes expressing human GlyT1
measurementParameters: radioligand binding, recombinant CHO cell membranes expressing human GlyT1c

Observe how each entry below is paired with its result.
>  <compound>
Cc1cccc(N[C@@H]2CN(S(=O)(=O)c3cn(C)cn3)C[C@H]2C2CCOC2)c1 (relative stereo)

>  <Ki>
≤ 10000 nM

$$$$
>  <compound>
Cn1cnc(S(=O)(=O)N2C[C@@H](Nc3ccc(F)c(OC(F)(F)F)c3)[C@H](C3CCOC3)C2)c1 (relative stereo)

>  <Ki>
≤ 1000 nM

$$$$
>  <compound>
Cn1cc(S(=O)(=O)N2C[C@H](Nc3cccc(OC(F)(F)F)c3)[C@@H](c3ccc(F)cc3)C2)nn1

>  <Ki>
≤ 10 nM

$$$$
>  <compound>
CCCCCCNC1CN(S(=O)(=O)c2cn(C)cn2)CC1[C@H]1CCCO1 (stereo partly shown)

>  <Ki>
≤ 10000 nM

$$$$
>  <compound>
Cn1cnc(S(=O)(=O)N2C[C@@H](Nc3cccc(Cl)c3)[C@H](C3CCCO3)C2)c1 (relative stereo)

>  <Ki>
≤ 1000 nM

$$$$

# get_value(readout='Ki', item= Cn1cnc(S(=O)(=O)N2C[C@@H](NCc3ccc(C(F)(F)F)cc3Cl)[C@H](C3CCCO3)C2)c1 (relative stereo) )
≤ 1000 nM

What would you report for Cn1cnc(S(=O)(=O)N2C[C@@H](Nc3cccc(Cl)c3)[C@H](C3CCOC3)C2)c1 (relative stereo) ?
≤ 10000 nM

Also Cn1cnc(S(=O)(=O)N2C[C@@H](Nc3ccc(F)c(C(F)(F)F)c3)[C@H](C3CCCO3)C2)c1 (relative stereo) ?
≤ 100 nM

Proceed to Cn1cnc(S(=O)(=O)N2C[C@@H](Nc3cccc(OCC(F)(F)F)c3)[C@H](C3CCCCO3)C2)c1 (relative stereo)
≤ 10 nM

Further, for Cn1cnc(S(=O)(=O)N2C[C@@H](Nc3cccc(OCC(F)(F)F)c3)[C@H](C3CCOC3)C2)c1 (relative stereo) ?
≤ 1000 nM
